Tested on: IST-MES1 (Mesothelioma)
Test Protocol: Bliss excess, mean over the matrix (fraction); higher = more synergy
Measured Metric: Bliss excess
Answer using only a numeral; do not append any unit.

Prompt line: Hi! What's the reported Bliss excess for CCN(CCO)CCCOc1ccc2c(Nc3cc(CC(=O)Nc4cccc(F)c4)[nH]n3)ncnc2c1 [AZD2811] + C=CCn1c(=O)c2cnc(Nc3ccc(N4CCN(C)CC4)cc3)nc2n1-c1cccc(C(C)(C)O)n1 [AZD1775] (first compound max 1 µM, partner max 1 µM) on IST-MES1 (Mesothelioma)?
Response line: -0.04

---

Reported Bliss excess values for the following compounds.
Tested on: NB12 (Neuroblastoma)
Test Protocol: Bliss excess, mean over the matrix (fraction); higher = more synergy
Answer using only a numeral; do not append any unit.

Prompt line: Bench note: what Bliss excess did C=CCn1c(=O)c2cnc(Nc3ccc(N4CCN(C)CC4)cc3)nc2n1-c1cccc(C(C)(C)O)n1 [AZD1775] + Nc1ccn([C@@H]2O[C@H](CO)[C@@H](O)C2(F)F)c(=O)n1 [Gemcitabine] (first compound max 1 µM, partner max 0.3 µM) show?
Response line: 0.0471

Prompt line: Bench note: what Bliss excess did N#Cc1cnc(Nc2cc(NC[C@H]3CNCCO3)c(C(F)(F)F)cn2)cn1 [SRA737] + O=c1[nH]cc(F)c(=O)[nH]1 [5-Fluorouracil] (first compound max 10 µM, 7x7, partner max 20 µM) show?
Response line: -0.0626

Prompt line: Bench note: what Bliss excess did COc1nnc2ccc(N3CCC(c4ccc(OCCN5CCN(C)C(=O)[C@H]5C)cc4)CC3)nn12 [AZD5153] + CCN(CCO)CCCOc1ccc2c(Nc3cc(CC(=O)Nc4cccc(F)c4)[nH]n3)ncnc2c1 [AZD2811] (first compound max 1 µM, 7x7, partner max 1 µM) show?
Response line: 0.0269

Prompt line: Bench note: what Bliss excess did COc1nnc2ccc(N3CCC(c4ccc(OCCN5CCN(C)C(=O)[C@H]5C)cc4)CC3)nn12 [AZD5153] + C=CCn1c(=O)c2cnc(Nc3ccc(N4CCN(C)CC4)cc3)nc2n1-c1cccc(C(C)(C)O)n1 [AZD1775] (first compound max 1 µM, partner max 1 µM) show?
Response line: -0.0313

---

Reported combination Emax values for the following compounds.
System: VAL (B-Cell Non-Hodgkin's Lymphoma)
Test Protocol: combination Emax (second highest fraction inhibited in the dose matrix, 72 h); higher = more inhibition; extreme values may be limits of the assay
Answer using only a numeral; do not append any unit.

Example cases with answers are listed next.
Compound: O=C(c1cc(Cc2n[nH]c(=O)c3ccccc23)ccc1F)N1CCN(C(=O)C2CC2)CC1 [Olaparib] + COc1nnc2ccc(N3CCC(c4ccc(OCCN5CCN(C)C(=O)[C@H]5C)cc4)CC3)nn12 [AZD5153] (first compound max 10 µM, 7x7, partner max 1 µM)
Experimental System: VAL (B-Cell Non-Hodgkin's Lymphoma)
combination Emax: 0.771
--
Compound: COc1cccc(OCCCN)c1-c1cc(Nc2cnc(C#N)cn2)n[nH]1 [Prexasertib] + CCc1c2c(nc3ccc(O)cc13)-c1cc3c(c(=O)n1C2)COC(=O)[C@]3(O)CC [SN-38] (first compound max 1 µM, 7x7, partner max 0.3 µM)
Experimental System: VAL (B-Cell Non-Hodgkin's Lymphoma)
combination Emax: 0.961
--
Compound: Cc1nc(-c2cn3c(n2)-c2ccc(-c4cnn(C(C)(C)C(N)=O)c4)cc2OCC3)n(C(C)C)n1 [Taselisib] + O=C(Nc1ccc2[nH]nc(-c3ccncc3)c2c1)[C@@H]1CCN(CC(=O)N2CCN(c3ccc(-c4ncccn4)cc3)CC2)C1 [SCH772984] (first compound max 10 µM, 7x7, partner max 5 µM)
Experimental System: VAL (B-Cell Non-Hodgkin's Lymphoma)
combination Emax: 0.6

Prompt line: Bench note: what combination Emax did C=CCn1c(=O)c2cnc(Nc3ccc(N4CCN(C)CC4)cc3)nc2n1-c1cccc(C(C)(C)O)n1 [AZD1775] + O=C(c1cc(Cc2n[nH]c(=O)c3ccccc23)ccc1F)N1CCN(C(=O)C2CC2)CC1 [Olaparib] (first compound max 1 µM, partner max 10 µM) show?
Response line: 0.816

Prompt line: Bench note: what combination Emax did CC(=O)Nc1cccc(-n2c(=O)n(C3CC3)c(=O)c3c(Nc4ccc(I)cc4F)n(C)c(=O)c(C)c32)c1 [Trametinib] + Cc1nc(-c2cn3c(n2)-c2ccc(-c4cnn(C(C)(C)C(N)=O)c4)cc2OCC3)n(C(C)C)n1 [Taselisib] (first compound max 1 µM, 7x7, partner max 10 µM) show?
Response line: 0.424

Prompt line: Bench note: what combination Emax did COc1nnc2ccc(N3CCC(c4ccc(OCCN5CCN(C)C(=O)[C@H]5C)cc4)CC3)nn12 [AZD5153] + C[C@@H]1COCCN1C2=NC(=NC(=C2)C3(CC3)[S@](=N)(=O)C)C4=C5C=CNC5=NC=C4 [AZD6738] (first compound max 1 µM, 7x7, partner max 10 µM) show?
Response line: 0.835
